- target system: HLA-A*03:01
- measurement description: IEDB peptide-MHC binding, purified MHC/competitive/radioactivity; filed as Kd, often an IC50 or EC50 that approximates it; bounds were set here for any values at or beyond the usual limits of such assays
- condition set: source organism: Vaccinia virus Copenhagen
readout kind: Kd
Answers without a unit are incomplete; give the number and then its unit.

Observed Kd on HLA-A*03:01 for SSSLDQTHIK , please.
0.09 µM

###

- target system: HLA-A*02:01
- measurement description: IEDB peptide-MHC binding, purified MHC/competitive/fluorescence; filed as Kd, often an IC50 or EC50 that approximates it; bounds were set here for any values at or beyond the usual limits of such assays
- condition set: source organism: Reston ebolavirus
pKd: −log10 of the molar value.
readout kind: pKd

Entry LPRERFRKT : reported pKd = ?
≤ 4.70
